- TEST_NAME: amyloid nucleation score (Sup35N fusion, yeast selection) (log enrichment); library NNK2; higher = more nucleation; inactive = no reads after selection;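 note: zero at mode of non-aggregating sequences after 7 days selection at 30°C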
// values below are reported amyloid nucleation score
Please state the value as a number alone, without comment.

These recorded examples may help you get a feel for the data.
LVKCSVSVRGEILRFLRYMA: 0.26
MCRYCLVWYGFLNYSTLTRG: -1.37

Need amyloid nucleation score of `TRLLIVDFNIFSIEIVHLMS` , thanks.
2.41

Could you do the same for `VESIKGVSCLYMFSYVMLLQ` , please?
-0.021

###

- TEST_NAME: amyloid nucleation score (Sup35N fusion, yeast selection) (log enrichment); library NNK3; higher = more nucleation; inactive = no reads after selection
READOUT_KIND: amyloid nucleation score

Worked cases, amyloid nucleation score given:
GKKMKEGCSSNISIVELSRN: inactive
AWHCLDYYRSGSVIDRRVGM: inactive
SSIDEIGSFV: inactive
WLSLFVIMPCLWGFCSMDSN: 1.47
SAEVAYGSFVYAGSWCRSVR: inactive
RKYVTRCASMMVHHYAYDTR: inactive
CNFNLILLMDGIKGSFL: 2.35
LYTDDAPGDVFLFNAFRVFH: inactive

Here's the next entry for you.
Recorded amyloid nucleation score of `NKGMPGPHGANSRYTGVDVG` , please.
inactive
